# reported fold induction at 5 µM; entries follow
system: HMOX1; experiment: HMOX1 Protein Assay (immunostaining of HO-1 in NHLF cells, GE InCell 1000); assay type: cell-based; details: Homo sapiens, fold change above DMSO treated cells, 5 μM compound, 16 h
Counter-ions that a name gives are not always drawn.
readout name: fold induction at 5 µM

molecule=CNC(=O)c1ccc2c(c1)nc(Nc1nc3ccc(OC(F)(F)F)cc3s1)n2C(C)C quantitative_readout=22.9
molecule=CCOCCNC(=O)c1ccc2c(c1)nc(Nc1nc3ccc(OC(F)(F)F)cc3s1)n2CCOC quantitative_readout=24.4
molecule="CC(O)CNC(=O)c1cnc2c(c1)nc(Nc1nc3ccc(OC(F)(F)F)cc3s1)n2C (centres unmarked)" quantitative_readout=28.6
molecule="CNCCOCCNC(=O)c1ccc2c(c1)nc(Nc1nc3ccc(OC(F)(F)F)cc3s1)n2C [Example 271, hydrochloride]" quantitative_readout=69.9
molecule=Cn1c(Nc2nc3ccc(OC(F)(F)F)cc3s2)nc2cc(C(=O)NCCOCCO)c(F)cc21 quantitative_readout=30.6
molecule=Cn1c(Nc2nc3ccc(Cl)cc3s2)nc2cc(C(=O)NCCCO)ccc21 quantitative_readout=42.4
molecule=CN(C)C(=O)CCNC(=O)c1ccc2c(c1)nc(Nc1nc3ccc(OC(F)(F)F)cc3s1)n2C quantitative_readout=49.6
molecule=CC(C)n1c(Nc2nc3ccc(OC(F)(F)F)cc3s2)nc2cc(C(=O)O)ccc21 quantitative_readout=26.7

---

We begin with a simple list: items and their reported fold induction at 5 µM.
test system: HMOX1; experiment: HMOX1 Protein Assay (immunostaining of HO-1 in NHLF cells, GE InCell 1000); assay type: cell-based; conditions: Homo sapiens, fold change above DMSO treated cells, 5 μM compound, 16 h
readout name: fold induction at 5 µM

chemical_string=Cn1c(Nc2nc3ccc(OC(F)(F)F)cc3s2)nc2cc(C(=O)NCC(=O)N3CCOCC3)cnc21 quantitative_readout=33
chemical_string=Cn1c(Nc2nc3ccc(OC(F)(F)F)cc3s2)nc2cc(C(=O)N[C@H]3CC[C@H](O)CC3)ccc21 quantitative_readout=10
chemical_string=CCSCCNC(=O)c1ccc2c(c1)nc(Nc1nc3ccc(OC(F)(F)F)cc3s1)n2C quantitative_readout=18.6
chemical_string=CCn1c(Nc2nc3ccc(Cl)cc3s2)nc2cc(C(=O)NC)ccc21 quantitative_readout=26.2
chemical_string=CNC(=O)c1ccc2c(c1)nc(Nc1nc3ccc(Cl)cc3s1)n2C quantitative_readout=13
chemical_string=Cn1c(Nc2nc3ccc(OC(F)(F)F)cc3s2)nc2cc(C(=O)N3CCN(CCO)CC3)ccc21 quantitative_readout=41.7
chemical_string=CCNC(=O)c1ccc2c(c1)nc(Nc1nc3ccc(OC(F)(F)F)cc3s1)n2C(C)C quantitative_readout=19.1
chemical_string=COCCNC(=O)c1ccc2c(c1)nc(Nc1nc3ccc(OC(F)(F)F)cc3s1)n2CCOC quantitative_readout=21.9

---

test system: HMOX1; experiment: HMOX1 Protein Assay (immunostaining of HO-1 in NHLF cells, GE InCell 1000); format: cell-based; conditions: Homo sapiens, fold change above DMSO treated cells, 5 μM compound, 16 h
Counter-ions that a name gives are not always drawn.
Entries annotated with measured fold induction at 5 µM
readout name: fold induction at 5 µM

compound=Cn1c(Nc2nc3ccc(Cl)cc3s2)nc2cc(C(=O)NCC3CCN(CCO)CC3)ccc21 quantitative_readout=25.6
compound=CCNC(=O)c1ccc2c(c1)nc(Nc1nc3ccc(OC(F)(F)F)cc3s1)n2CC quantitative_readout=21
compound="Cn1c(Nc2nc3ccc(OC(F)(F)F)cc3s2)nc2cc(C(=O)NC3CCCN(C(=O)OC(C)(C)C)C3)ccc21 (stereo not shown)" quantitative_readout=1.2
compound=COC(=O)CCNC(=O)c1ccc2c(c1)nc(Nc1nc3ccc(OC(F)(F)F)cc3s1)n2C quantitative_readout=19.2
compound=Cn1c(Nc2nc3ccc(F)cc3s2)nc2cc(C(=O)O)ccc21 quantitative_readout=14.1
compound=CSCCNC(=O)c1ccc2c(c1)nc(Nc1nc3ccc(OC(F)(F)F)cc3s1)n2C quantitative_readout=11.2
compound=CN(C)CCOCCNC(=O)c1ccc2c(c1)nc(Nc1nc3ccc(Cl)cc3s1)n2C quantitative_readout=65.9
compound=Cn1c(Nc2nc3ccc(OC(F)(F)F)cc3s2)nc2cc(C(=O)NCCN3CCCCC3)ccc21 quantitative_readout=14.5
compound=Cn1c(Nc2nc3ccc(OC(F)(F)F)cc3s2)nc2cc(C(=O)NC3CCN(C(=O)OC(C)(C)C)CC3)ccc21 quantitative_readout=3.4
compound="Cn1c(Nc2nc3ccc(OC(F)(F)F)cc3s2)nc2cc(C(=O)NC3CCNCC3)ccc21 [Example 93, hydrochloride]" quantitative_readout=11.3
compound=COC(=O)C(C)(C)NC(=O)c1ccc2c(c1)nc(Nc1nc3ccc(OC(F)(F)F)cc3s1)n2C quantitative_readout=7.1
compound=COCCNC(=O)c1ccc2c(c1)nc(Nc1nc3cc(F)c(F)cc3s1)n2C quantitative_readout=16.4
compound="Cn1c(Nc2nc3ccc(OC(F)(F)F)cc3s2)nc2cc(C(=O)NCCN)ccc21 [Example 104, hydrochloride]" quantitative_readout=16.3
compound=CN(C)[C@@H]1CCN(C(=O)CNC(=O)c2ccc3c(c2)nc(Nc2nc4ccc(Cl)cc4s2)n3C)C1 quantitative_readout=62.8
compound=Cn1c(Nc2nc3ccc(Cl)cc3s2)nc2ccc(C(=O)NCCOCCO)cc21 quantitative_readout=47
compound=CC(=O)NCCOCCNC(=O)c1ccc2c(c1)nc(Nc1nc3ccc(OC(F)(F)F)cc3s1)n2C quantitative_readout=77.4
